Entries annotated with measured IC50
# target-or-system: PD-L1 His protein / PD-1 Fc protein (Homo sapiens, UniProt Q9NZQ7)
# Sequence (Q9NZQ7 19-238 limits assumed): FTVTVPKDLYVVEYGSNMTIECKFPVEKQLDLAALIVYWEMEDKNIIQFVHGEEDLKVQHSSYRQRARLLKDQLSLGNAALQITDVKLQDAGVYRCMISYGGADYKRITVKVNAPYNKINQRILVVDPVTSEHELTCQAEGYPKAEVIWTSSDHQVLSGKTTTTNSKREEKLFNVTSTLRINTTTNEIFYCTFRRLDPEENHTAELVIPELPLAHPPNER
# method: HTRF Assay (PD-1/PD-L1 interaction)
# study-conditions: PD-L1 His 6 nM, PD-1 Fc 6 nM
The reply should be a number in nM, with the unit left off.

COc1nc(-c2cccc(-c3cccc(-c4cc(C)n5c(=O)c(CN[C@H]6C[C@@](C)(O)C6)cnc5c4)c3Cl)c2Cl)ccc1CNC[C@@H]1CCC(=O)N1 [Example 254] = 61

# query: IC50 of entry COc1nc(-c2cccc(-c3cccc(-c4ccn5c(=O)c(CNC[C@@H]6CCC(=O)N6)cnc5c4)c3Cl)c2Cl)cnc1N1CC(N)C1 [Example 71]
2

Need IC50, item COc1nc(-c2cccc(-c3cccc(-c4ccn5c(=O)c(CN(C)[C@@H](C)C(=O)O)cnc5c4)c3Cl)c2Cl)ccc1CNC[C@@H]1CCC(=O)N1 [Example 190]
0.1

Where these numbers come from: patent US20230143612A1
